target: DNA-PK(h) (Homo sapiens, UniProt P78527); test: Evaluation of inhibitory activity against DNA-PK (HTRF kinase assay, GST-cMyc-p53 substrate); assay type: biochemical; details: compound concentration 0.01 μM; read-out: EXP_VALUE(% Inhibition) DNA-PK(h) 0.01 μM
reportedProperty: inhibition at 0.01 µM (%)

For orientation, consider the following solved cases.
# compound, reportedProperty, assayResult
records = [
    ("C[C@H](Nc1ncnc2[nH]ccc(=O)c12)c1c(Cl)c2cccc(-c3ccc(OCC4CC4)nc3)c2c(=O)n1-c1ccccc1 [Example 163]", "inhibition at 0.01 µM", 45),
    ("C[C@H](Nc1ncnc2[nH]ccc(=O)c12)c1c(Cl)c2cccc(/C=N/O)c2c(=O)n1-c1ccccc1 [Example 273]", "inhibition at 0.01 µM", 36),
    ("Cc1ccc(-c2cccc3c(Cl)c([C@H](C)Nc4ncnc5[nH]ccc(=O)c45)n(-c4ccccc4)c(=O)c23)c(C)n1 [Example 248]", "inhibition at 0.01 µM", 66),
]

1: C[C@H](Nc1ncnc2[nH]ccc(=O)c12)c1c(Cl)c2cccc(-c3ccc4ncnn4c3)c2c(=O)n1-c1ccccc1 [Example 42]
2: C[C@H](Nc1ncnc2[nH]ccc(=O)c12)c1c(Cl)c2cccc(-c3cc(O)ncn3)c2c(=O)n1-c1ccccc1 [Example 50]
Input: Could you check which of 1 and 2 has a smaller value for inhibition at 0.01 µM? Please indicate the selected item by its label.
Output: 2
(2: 53%, 1: 76%)

1: C[C@H](Nc1ncnc2[nH]ccc(=O)c12)c1c(Cl)c2cccc(C#Cc3cncnc3)c2c(=O)n1-c1ccccc1 [Example 316]
2: C[C@H](Nc1ncnc2[nH]ccc(=O)c12)c1c(Cl)c2cccc(-c3ccc(Oc4ccccc4)nc3)c2c(=O)n1-c1ccccc1 [Example 185]
3: C[C@H](Nc1ncnc2[nH]ccc(=O)c12)c1c(Cl)c2cccc(C(=O)NCc3cccs3)c2c(=O)n1-c1ccccc1 [Example 278]
4: C[C@H](Nc1ncnc2[nH]ccc(=O)c12)c1c(Cl)c2cccc(-c3ccc4[nH]ccc4c3)c2c(=O)n1-c1ccccc1 [Example 73]
Input: Sort the compounds on inhibition at 0.01 µM; start with the lowest figure. Provide the ranking by listing each label in its place in the requested order.
Output: 3, 2, 4, 1

P: CC(=O)c1cccc2c(Cl)c([C@H](C)Nc3ncnc4[nH]ccc(=O)c34)n(-c3ccccc3)c(=O)c12 [Example 267]
Q: C[C@H](Nc1ncnc2[nH]ccc(=O)c12)c1cc2cccc(-c3cnn(C)c3)c2c(=O)n1-c1ccccc1 [Example 15]
R: C[C@H](Nc1ncnc2[nH]ccc(=O)c12)c1c(Cl)c2cccc(-c3cc(F)cc(F)c3)c2c(=O)n1-c1ccccc1 [Example 124]
Input: List from greatest to least inhibition at 0.01 µM. # output: labels, in the requested order
Output: P, R, Q
(P: 63%, R: 44%, Q: 24%)

I: C[C@H](Nc1ncnc2[nH]ccc(=O)c12)c1c(Cl)c2cccc(-c3ccc(C(=O)O)nc3)c2c(=O)n1-c1ccccc1 [Example 47]
II: C[C@H](Nc1ncnc2[nH]ccc(=O)c12)c1c(Cl)c2cccc(-c3ccc4ncccc4c3)c2c(=O)n1-c1ccccc1 [Example 121]
Input: So which one has the bigger inhibition at 0.01 µM here, I or II ? Returns: label corresponding to the selected item.
Output: II
(II: 76%, I: 48%)
